# Test system: lung cancer cell lines (e.g. NCI-H23, NCI-H1229)
# PROTOCOL_SUMMARY: Cell based assay, cell viability (CellTiter-Glo), lung cancer cell lines
# CONDITION_DESCRIPTION: Homo sapiens; NCI-H522 cells; 72 hours treatment; CellTiter-Glo; read-out: IC50, lung cancer cell line NCI-H522
VALUE_KIND: IC50

Illustrative cases are given below, each with its answer.
CSc1c(C(C)=O)c(=O)c2c(Cl)ccc(Br)c2n1S(C)(=O)=O [Compound 35]	> 2000 nM
CSc1[nH]c2ccc(F)cc2c(=O)c1C(C)=O [Compound 8]	> 2000 nM
CC(=O)c1c([S+]([O-])Cc2ccccc2C#N)[nH]c2c(Br)ccc(Cl)c2c1=O (centres unmarked) [Compound 58]	1940 nM
CC(=O)c1c(SCc2ccccc2)[nH]c2c(Br)ccc(Cl)c2c1=O [Compound 3]	> 2000 nM

API: the following record is the query input.
Q: State, for lung cancer cell lines (e.g. NCI-H23, NCI-H1229), measured IC50 of the molecule listed here: CC(=O)c1c([S+]([O-])Cc2cccc(I)c2)[nH]c2c(Br)ccc(Cl)c2c1=O (centres unmarked) [Compound 48]
Ans: > 2000 nM

----------
# System: lung cancer cell lines (e.g. NCI-H23, NCI-H1229)
# PROTOCOL_SUMMARY: Cell based assay, cell viability (CellTiter-Glo), lung cancer cell lines
# CONDITION_DESCRIPTION: Homo sapiens; Lung cancer cell line NCI-H460; 72 hours; cell viability (CellTiter-Glo); read-out: IC50, NCI-H460
VALUE_KIND: IC50 (nM)
Reply with just the number (in nM).

Q: State, for lung cancer cell lines (e.g. NCI-H23, NCI-H1229), measured IC50 of the compound listed here: CC(=O)c1c([S+]([O-])Cc2ccc(C(F)(F)F)nc2C)[nH]c2c(Br)ccc(Cl)c2c1=O (centres unmarked)
Ans: 1440

----------
# Tested on: colorectal cancer cell lines (e.g. DLD-1, HCT 116, SW620, HCT-15, HCT-8, RKO)
# PROTOCOL_SUMMARY: Cell based assay, cell viability (CellTiter-Glo), colorectal cancer cell lines
# CONDITION_DESCRIPTION: Homo sapiens, SW480 cells, 72 hours treatment, read-out: IC50, colorectal cancer cell line SW480
VALUE_KIND: IC50

Illustrative cases are given below, each with its answer.
CC(=O)c1c([S+]([O-])Cc2ccc(C#N)s2)[nH]c2c(Br)ccc(Cl)c2c1=O (centres unmarked)	> 2000 nM
Cc1cc(C[S+]([O-])c2[nH]c3c(Br)ccc(Cl)c3c(=O)c2C(=O)C2CC2)no1 (centres unmarked)	> 2000 nM
Cc1cc(C[S+]([O-])c2[nH]c3c(Cl)ccc(Cl)c3c(=O)c2C(=O)c2ccccc2)no1 (centres unmarked)	> 2000 nM
Cc1cc(C[S+]([O-])c2[nH]c3c(Cl)ccc(Cl)c3c(=O)c2C(=O)C2CC2)no1 (centres unmarked)	1690 nM

API: the following record is the query input.
Q: Respond only with IC50 recorded for "COc1cccc2[nH]c(SCc3ccc(S(F)(F)(F)(F)F)cc3)c(C(C)=O)c(=O)c12"
Ans: > 2000 nM

----------
# System: breast cancer cell lines (e.g. MDA-MB-231, SK-BR-3, MDA-MB-468, HCC1954)
# PROTOCOL_SUMMARY: Cell based assay, cell viability (CellTiter-Glo), breast cancer cell lines
# CONDITION_DESCRIPTION: Homo sapiens; HCC1954 cells; 72 hours treatment; CellTiter-Glo cell viability; read-out: IC50, Breast cancer cell line HCC1954
VALUE_KIND: IC50 (nM)

a = CC(=O)c1c([S+]([O-])Cc2ccc(Cl)nc2)[nH]c2c(Br)ccc(Cl)c2c1=O (stereo not drawn)
b = Cc1cc(C[S+]([O-])c2[nH]c3c(Cl)ccc(Cl)c3c(=O)c2C(=O)C(C)C)no1 (stereo not drawn)
Q: Quick check, higher IC50 between a and b ? Refer to your chosen entry by its label in the reply.
Ans: a
(a: 1050 nM, b: 500 nM)

----------
# Test system: neuroblastoma cell lines
# PROTOCOL_SUMMARY: Cell based assay, cell viability (CellTiter-Glo), neuroblastoma cell lines
# CONDITION_DESCRIPTION: Homo sapiens; SH-SY5Y cell line
pIC50: −log10 of the molar value.
VALUE_KIND: pIC50

CC(=O)c1c([S+]([O-])Cc2ccc(SC(F)(F)F)cc2)[nH]c2c(Br)ccc(Cl)c2c1=O (stereo not shown)	< 5.70

Q: Respond only with pIC50 recorded for CC(=O)c1c([S+]([O-])Cc2cnc3[nH]ccc3c2)[nH]c2c(Br)ccc(Cl)c2c1=O (stereo not shown)
Ans: < 5.70

Q: Respond only with pIC50 recorded for CC(=O)c1c([S+]([O-])Cc2nonc2C)[nH]c2c(Br)ccc(Cl)c2c1=O (stereo not shown)
Ans: 5.89

Q: Respond only with pIC50 recorded for CC(=O)c1c([S+]([O-])Cc2ccc(NS(C)(=O)=O)cc2)[nH]c2c(Br)ccc(Cl)c2c1=O (stereo not shown)
Ans: 6.00

Q: Respond only with pIC50 recorded for "CSc1c(C(C)=O)c(=O)c2cc(F)ccc2n1C"
Ans: < 5.70

Q: Respond only with pIC50 recorded for CC(=O)c1c([S+]([O-])Cc2c(F)c(F)c(F)c(F)c2F)[nH]c2c(Br)ccc(Cl)c2c1=O (stereo not shown)
Ans: < 5.70

Q: Respond only with pIC50 recorded for CC(=O)c1c([S+]([O-])Cc2cc(C)on2)[nH]c2c(Br)ccc(Cl)c2c1=O (stereo not shown)
Ans: < 5.70

Q: Respond only with pIC50 recorded for CC(=O)c1c([S+]([O-])Cc2ccc(C#N)cc2)[nH]c2c(Br)ccc(Cl)c2c1=O (stereo not shown)
Ans: < 5.70

Q: Respond only with pIC50 recorded for CC(=O)c1c([S+]([O-])Cc2cccc(F)c2)[nH]c2c(Br)ccc(Cl)c2c1=O (stereo not shown)
Ans: < 5.70

Q: Respond only with pIC50 recorded for "CSc1c(C(C)=O)c(=O)c2c(Cl)ccc(Br)c2n1S(C)(=O)=O"
Ans: < 5.70

Q: Respond only with pIC50 recorded for CC(=O)c1c([S+]([O-])Cc2cccc(I)c2)[nH]c2c(Br)ccc(Cl)c2c1=O (stereo not shown)
Ans: < 5.70

Q: Respond only with pIC50 recorded for "COc1cccc2[nH]c(SCc3ccc(S(F)(F)(F)(F)F)cc3)c(C(C)=O)c(=O)c12"
Ans: < 5.70

Q: Respond only with pIC50 recorded for "CC(=O)c1c(S(C)(=O)=O)n(C(=O)c2ccc(Br)cc2)c2c(Br)ccc(Cl)c2c1=O"
Ans: < 5.70

----------
IC50 for assorted molecules
# System: brain cancer cell lines
# PROTOCOL_SUMMARY: Cell based assay, cell viability (CellTiter-Glo), brain cancer cell lines
# CONDITION_DESCRIPTION: Homo sapiens, U138-MG; U-138 MG cell line; read-out: IC50, Brain cancer cell line U-138 MG

Q: Respond only with IC50 recorded for "COCSc1[nH]c2c(Br)ccc(Cl)c2c(=O)c1C(C)=O"
Ans: > 10 µM

----------
pIC50 for assorted compounds
# Tested on: lung cancer cell lines (e.g. NCI-H23, NCI-H1229)
# PROTOCOL_SUMMARY: Cell based assay, cell viability (CellTiter-Glo), lung cancer cell lines
# CONDITION_DESCRIPTION: Homo sapiens; Lung cancer cell line NCI-H1299; 72 hours; cell viability (CellTiter-Glo); read-out: IC50, NCI-H1299
pIC50: −log10 of the molar value.

O=C(c1c([S+]([O-])Cc2ccc(SC(F)(F)F)cc2)[nH]c2c(Br)ccc(Cl)c2c1=O)C1CC1 (stereo not drawn)	< 5.70
COCCNc1ccc(C[S+]([O-])c2[nH]c3c(Br)ccc(Cl)c3c(=O)c2C(C)=O)cn1 (stereo not drawn)	< 5.70

API: the following record is the query input.
Q: Respond only with pIC50 recorded for CC(=O)c1c([S+]([O-])Cc2ccc(Cl)nc2)[nH]c2c(Br)ccc(Cl)c2c1=O (stereo not drawn)
Ans: 5.93

----------
# System: colorectal cancer cell lines (e.g. DLD-1, HCT 116, SW620, HCT-15, HCT-8, RKO)
# PROTOCOL_SUMMARY: Cell based assay, cell viability (CellTiter-Glo), colorectal cancer cell lines
# CONDITION_DESCRIPTION: Homo sapiens, HCT 116 cells, 72 hours treatment, read-out: IC50, colorectal cancer cell line HCT 116
pIC50: −log10 of the molar value.
pIC50 for assorted molecules

Q: Respond only with pIC50 recorded for CC(=O)c1c([S+]([O-])Cc2ccc(NS(C)(=O)=O)cc2)[nH]c2c(Br)ccc(Cl)c2c1=O (centres unmarked) [Compound 103]
Ans: < 5.70

----------
pIC50 for assorted compounds
# Tested on: pancreatic cancer cell lines (e.g. MIA PaCa-2)
# PROTOCOL_SUMMARY: Cell based assay, cell viability (CellTiter-Glo), pancreatic cancer cell lines
# CONDITION_DESCRIPTION: Homo sapiens, pancreatic cancer cell line Capan-1, 72 hours, read-out: IC50, Capan-1
pIC50: −log10 of the molar value.

Q: Respond only with pIC50 recorded for CC(=O)c1c([S+]([O-])Cc2cccnc2)[nH]c2c(Br)ccc(Cl)c2c1=O (centres unmarked)
Ans: 5.82

Q: Respond only with pIC50 recorded for CC(=O)c1c([S+]([O-])Cc2ccc([N+](=O)[O-])cc2)[nH]c2c(Cl)ccc(Cl)c2c1=O (centres unmarked)
Ans: < 5.70
